The measurements presented in this section are drawn from patent US8163728B2.

target desc: GABA A α5 (Homo sapiens, UniProt P18507+P31644)
Construct: membranes prepared from cell pellets
assay info: [3H]flumazenil competition binding, human GABA A α5β3γ2 receptors in HEK293 cell membranes
measurement parameters: human receptor α5β3γ2 transiently transfected in HEK293; 0.5 nM [3H]flumazenil; 1 hour at 4° C.; means of two determinations; read-out: hKi GABA A α5
Please provide measured pKi for the entries that follow.
Quick note: pKi values are minus log10 of concentrations in mol/L.

Prompt: Looking for the measured pKi of Cc1onc(-c2ccc(F)cn2)c1COc1cc(C(=O)NC2CCOCC2)n(C)n1 [Example 84] , can you help?
Completion: 8.46

Prompt: Please do the same for Cc1onc(-c2ccc(F)cc2)c1COc1cc(C(=O)NN2CCOCC2)n(C)n1 [Example 50] as well.
Completion: 8.46

Prompt: Please do the same for Cc1onc(-c2ccc(F)cc2)c1CNc1cc(C(=O)NCC(C)(C)O)n(C)n1 [Example 144] as well.
Completion: 7.53

Prompt: Please do the same for Cc1onc(-c2ccc(F)cc2)c1/C=C/c1cc(C(=O)NCC(C)(C)O)[nH]n1 [Example 140] as well.
Completion: 8.42

* * *

target desc: GABA A α5 (Homo sapiens, UniProt P18507+P31644)
Construct: membranes prepared from cell pellets
assay info: [3H]flumazenil competition binding, human GABA A α5β3γ2 receptors in HEK293 cell membranes
measurement parameters: human receptor α5β3γ2 transiently transfected in HEK293; 0.5 nM [3H]flumazenil; 1 hour at 4° C.; means of two determinations; read-out: hKi GABA A α5
value kind: Ki (nM)
Quick note: give the figure in nM, leave out the unit.

Prompt: State its Ki on GABA A α5 (Homo sapiens, UniProt P18507+P31644): CC(=O)NCCNC(=O)c1cc(OCc2c(-c3ccc(F)cc3)noc2C)nn1C
Completion: 16.1

Prompt: Please do the same for Cc1onc(-c2ccc(F)cc2)c1COc1cc(C(N)=O)n(C)n1 as well.
Completion: 12

Prompt: Please do the same for Cc1onc(-c2ccccn2)c1COc1cc(C(=O)NC2CCOCC2)n[nH]1 as well.
Completion: 2.5

Prompt: Please do the same for Cc1onc(-c2ccc(F)cc2)c1CNc1cc(C(=O)N2CC3(COC3)C2)[nH]n1 as well.
Completion: 22

Prompt: Please do the same for CCCCc1noc(C)c1COc1cc(C(=O)NN2CCCC2)[nH]n1 as well.
Completion: 21.5

Prompt: Please do the same for Cc1onc(-c2ccccn2)c1COc1cc(C(=O)N[C@@H](C)CO)n[nH]1 as well.
Completion: 11.1

Prompt: Please do the same for Cn1nc(OCc2c(-c3ccc(F)cc3)noc2CO)cc1C(=O)NC1(C)COC1 (racemic) as well.
Completion: 4.9

Prompt: Please do the same for CCCCc1noc(C)c1COc1cc(C(=O)NCCO)[nH]n1 as well.
Completion: 20.2

Prompt: Please do the same for Cc1onc(-c2ccccc2)c1COc1cc(C(N)=O)n(C)n1 as well.
Completion: 47.3

Prompt: Please do the same for Cc1onc(-c2ccc(F)cc2)c1/C=C/c1cc(C(=O)NCC(C)(C)O)n(C)n1 as well.
Completion: 2

Prompt: Please do the same for Cc1onc(-c2ccc(F)cc2)c1COc1cc(C(=O)NN2CCCC2)n(C)n1 as well.
Completion: 11.4

Prompt: Please do the same for Cc1onc(-c2ccc(F)cn2)c1CNc1cc(C(=O)NC2(C)COC2)n(C)n1 as well.
Completion: 16.2

Prompt: Please do the same for CCCCc1noc(C)c1COc1cc(C(=O)NC(C)C)[nH]n1 as well.
Completion: 15.7

Prompt: Please do the same for Cn1nc(OCc2c(-c3ccc(Cl)cc3)noc2CO)cc1C(=O)NC1(C)COC1 as well.
Completion: 3.1

Prompt: Please do the same for Cn1nc(OCc2c(-c3ccc(F)cc3)noc2CO)cc1C(=O)NCC(F)(F)C(F)(F)F as well.
Completion: 8

Prompt: Please do the same for Cc1onc(-c2ccc(F)cc2)c1/C=C/c1cc(C(=O)NC(C)CO)n(C)n1 (stereo not drawn) as well.
Completion: 0.9

Prompt: Please do the same for Cc1onc(-c2ccc(F)cc2)c1/C=C/c1cc(C(=O)NC(C)(C)CO)[nH]n1 as well.
Completion: 11

Prompt: Please do the same for Cc1onc(-c2ccc(F)cc2)c1COc1cc(C(=O)NCC2(O)CC2)n(C)n1 as well.
Completion: 7.4
